Here's a roundup of IC50 values tested on 5-hydroxytryptamine receptor 1B (Rattus norvegicus), taken from various published works.
Sequence (P28564 whole entry): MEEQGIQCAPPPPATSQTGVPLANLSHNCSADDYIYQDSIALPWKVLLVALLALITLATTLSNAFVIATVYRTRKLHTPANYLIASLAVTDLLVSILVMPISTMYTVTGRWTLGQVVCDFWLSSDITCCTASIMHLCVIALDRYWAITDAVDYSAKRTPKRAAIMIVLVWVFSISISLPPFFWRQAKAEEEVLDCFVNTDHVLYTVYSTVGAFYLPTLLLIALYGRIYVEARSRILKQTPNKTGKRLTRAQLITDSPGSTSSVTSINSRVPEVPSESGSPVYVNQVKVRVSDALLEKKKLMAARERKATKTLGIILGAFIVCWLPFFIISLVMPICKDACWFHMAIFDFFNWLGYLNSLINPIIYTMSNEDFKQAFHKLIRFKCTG
parameter measured: IC50 (nM)

{"compound": "OC1(c2ccc3c(c2)OCO3)CCC(N2CCN(Cc3ccccc3)CC2)CC1 (stereo not drawn)", "parameter measured": "IC50", "comparison operator": ">", "result value": 1000}
{"compound": "CCCN(CCCCN1CC2CCCC2C1=O)C1COc2cccc(OC)c2C1 (stereo not drawn)", "parameter measured": "IC50", "comparison operator": "=", "result value": 30000}
{"compound": "Cn1c(=O)sc2cc(CCCCN3CCN(c4cccc(C(F)(F)F)c4)CC3)ccc21", "parameter measured": "IC50", "comparison operator": "=", "result value": 1000}
